# Test system: Plasmodium falciparum
# protocol: microbe, parasite or virus in culture
# experimentalContext: D6, 48 h
pIC50: −log10 of the molar value.
This section presents compounds with their documented pIC50 values.

# smiles, system, boundSign, pIC50
measured = [
    ("COc1cc(CNCCCCCCCCCCNCc2ccc(OCc3ccccc3)c(OC)c2)ccc1OCc1ccccc1", "Plasmodium falciparum", "=", 5.95),
    ("COc1cc(CNCCCNCc2ccc(OCc3ccccc3)c(OC)c2)ccc1OCc1ccccc1", "Plasmodium falciparum", "=", 6.38),
    ("COc1ccc(CNCCCCNCc2ccc(OC)c(O)c2)cc1O", "Plasmodium falciparum", "<", 5.10),
    ("COc1ccc(CNCCCCCCNCc2ccc(OC)c(O)c2)cc1O", "Plasmodium falciparum", "<", 5.10),
    ("COc1cc(CNCCCCCCNCc2ccc(OCc3ccccc3)c(OC)c2)ccc1OCc1ccccc1", "Plasmodium falciparum", "=", 6.59),
    ("COc1ccc(CNCCCNCc2ccc(OC)cc2)cc1", "Plasmodium falciparum", "=", 5.50),
    ("COc1ccc(CNCCCCCCCCNCc2ccc(OC)cc2)cc1", "Plasmodium falciparum", "=", 5.83),
    ("COc1cc(CNCCCCCCCCCCCCNCc2ccc(OCc3ccccc3)c(OC)c2)ccc1OCc1ccccc1", "Plasmodium falciparum", "=", 5.89),
    ("COc1cc(CNCCCCCCCCNCc2ccc(OCc3ccccc3)c(OC)c2)ccc1OCc1ccccc1", "Plasmodium falciparum", "=", 6.51),
]

----------
# protocol: Selectivity index, ratio of IC50 for African green monkey Vero cells to IC50 for chloroquine-sensitive Plasmodium falciparum D6
# Format: toxicity
# experimentalContext: read-out: Ratio IC50

# smiles, selectivity ratio
data = [
    ("COc1ccc(CNCCCCCCCCNCc2ccc(OC)cc2)cc1", "> 8.4"),
    ("COc1cc(CNCCCCCCCCCCCCNCc2ccc(OCc3ccccc3)c(OC)c2)ccc1OCc1ccccc1", "> 5.67"),
    ("COc1ccc(CNCCCCCCCCCCCCNCc2ccc(OC)c(O)c2)cc1O", "> 5.1"),
    ("c1ccc(CNCCCNCc2ccccc2)cc1", "> 7.9"),
    ("COc1cc(CNCCCCCCCCNCc2ccc(OCc3ccccc3)c(OC)c2)ccc1OCc1ccccc1", 14.6),
    ("COc1ccc(CNCCCCCCCCCCNCc2ccc(OC)c(O)c2)cc1O", "> 5.41"),
    ("COc1ccc(CNCCCCCCCCCCCCNCc2ccc(OC)cc2)cc1", "> 6.8"),
    ("COc1cc(CNCCCCNCc2ccc(OCc3ccccc3)c(OC)c2)ccc1OCc1ccccc1", "> 27.4"),
    ("COc1ccc(CNCCCCCCCCNCc2ccc(OC)c(O)c2)cc1O", "> 2.38"),
]

----------
This section presents compounds with their documented pIC50 values.
# System: Plasmodium falciparum
# protocol: microbe, parasite or virus in culture
# experimentalContext: D6, 48 h
pIC50: −log10 of the molar value.

# compound, boundSign, pIC50
measured = [
    ("COc1ccc(CNCCCCCCCCCCCCNCc2ccc(OC)c(O)c2)cc1O", "=", 5.71),
    ("COc1ccc(CNCCCNCc2ccc(OC)c(O)c2)cc1O", "<", 5.10),
    ("COc1ccc(CNCCCCCCCCNCc2ccc(OC)c(O)c2)cc1O", "=", 5.32),
    ("C[C@@H]1CC[C@H]2[C@@H](C)C(=O)O[C@@H]3O[C@@]4(C)CC[C@@H]1[C@]32OO4 [ARTEMISININ]", "=", 7.03),
    ("COc1ccc(CNCCCCCCCCCCNCc2ccc(OC)cc2)cc1", "=", 6.22),
    ("COc1ccc(CNCCCCCCCCCCCCNCc2ccc(OC)cc2)cc1", "=", 5.80),
    ("COc1ccc(CNCCCCCCNCc2ccc(OC)cc2)cc1", "=", 5.51),
    ("COc1ccc(CNCCCCNCc2ccc(OC)cc2)cc1", "=", 5.34),
]
